Origin of values: patent US20250268826A1

# RUN DESCRIPTION: LNP size and polydispersity index (PDI) by dynamic light scattering (DLS)
# Type: physicochemical
# CONDITIONS: Table 11; LNP with hEPO mRNA, Lipid:DSPC:Cholesterol:DMG-PEG2k 50:10:38.5:1.5 mol % (ALC-0315: 46.3:9.4:42.7:1.6), N:P ratio 6; HEPES/sodium chloride/sucrose buffer, stored at −80C
EXPERIMENTAL READOUT: PDI

Example entries begin here.
CCCCCCCC(CCCCCCC)C(=O)OCCN(CCOC(=O)C(CCCCCCC)CCCCCCC)C(=O)C(C)CCN(C)C.Cl (centres unmarked) [Compound 987b] : 0.102
CCCCCCCCC(CCCCCC)C(=O)OCCN(CCOC(=O)C(CCCCCC)CCCCCCCC)C(=O)C(C)CCN(CCCC)CCCC.Cl (centres unmarked) [Compound 987o] : 0.121
CCCCCCCCC(CCCCCC)C(=O)OCCN(CCOC(=O)C(CCCCCC)CCCCCCCC)C(=O)C(C)CCN1CCOCC1.Cl (centres unmarked) [Compound 987n] : 0.107

(1) CCCCCCCCC(CCCCCC)C(=O)OCCN(CCOC(=O)C(CCCCCC)CCCCCCCC)C(=O)C(C)CCN(C)CCC.Cl (centres unmarked) [Compound 987i]
(2) CCCCCCCCC(CCCCCC)C(=O)OCCN(CCOC(=O)C(CCCCCC)CCCCCCCC)C(=O)C(C)CCN(CC)CC.Cl (centres unmarked) [Compound 987g]
Of the two listed items, 1 and 2 , which carries the larger PDI figure? // output: label of the selected item
2

(A) CCCCCCCCC(CCCCCC)C(=O)OCCN(CCOC(=O)C(CCCCCC)CCCCCCCC)C(=O)C(C)CCN1CCCCC1.Cl (centres unmarked) [Compound 987m]
(B) CCCCCCCCC(CCCCCC)C(=O)OCCCCCCN(CCCCO)CCCCCCOC(=O)C(CCCCCC)CCCCCCCC (centres unmarked) [ALC-0315, reference compound]
(C) CCCCCCCCC(CCCCCC)C(=O)OCCN(CCOC(=O)C(CCCCCC)CCCCCCCC)C(=O)C(C)CCNCC.Cl (centres unmarked) [Compound 987e]
(D) CCCCCCCCC(CCCCCC)C(=O)OCCN(CCOC(=O)C(CCCCCC)CCCCCCCC)C(=O)C(C)CCN(CCC)CCC.Cl (centres unmarked) [Compound 987k]
Put the items in sequence by PDI, from largest down. Provide your answer as the labels ordered per the instruction.
B, C, A, D

(a) CCCCCCCCC(CCCCCC)C(=O)OCCN(CCOC(=O)C(CCCCCC)CCCCCCCC)C(=O)C(C)CCNC.Cl (centres unmarked) [Compound 987d]
(b) CCCCCCCCC(CCCCCC)C(=O)OCCN(CCOC(=O)C(CCCCCC)CCCCCCCC)C(=O)C(C)CCN1CCCC1.Cl (centres unmarked) [Compound 987l]
Of the two listed items, a and b , which carries the larger PDI figure? // output: label of the selected item
a
(a: 0.092, b: 0.051)

(1) CCCCCCCCCC(CCCCCCCCC)C(=O)OCCN(CCOC(=O)C(CCCCCCCCC)CCCCCCCCC)C(=O)C(C)CCN(C)C.Cl (centres unmarked) [Compound 987c]
(2) CCCCCCCCC(CCCCCC)C(=O)OCCN(CCOC(=O)C(CCCCCC)CCCCCCCC)C(=O)C(C)CCN(CC)CCC.Cl (centres unmarked) [Compound 987j]
Of the two listed items, 1 and 2 , which carries the larger PDI figure? // output: label of the selected item
2

(1) CCCCCCCCC(CCCCCC)C(=O)OCCN(CCOC(=O)C(CCCCCC)CCCCCCCC)C(=O)C(C)CCN(C)CC.Cl (centres unmarked) [Compound 987f]
(2) CCCCCCCCC(CCCCCC)C(=O)OCCN(CCOC(=O)C(CCCCCC)CCCCCCCC)C(=O)C(C)CCN(C)CCO.Cl (centres unmarked) [Compound 987p]
Looking at recorded values for PDI, does 1 or 2 come in lower? // output: label of the selected item
1
